System: Leishmania braziliensis
ASSAY_DETAILS: Antileishmanial activity against Leishmania (Viannia) braziliensis HMOM/COL/88/UA301-EGFP intracellular amastigotes infected in human U937 cells after 72 hrs by flow cytometric analysis
Format: functional, organism-based
CONDITION_SUMMARY: HMOM/COL/88/UA301, U-937, 72 h
Each item that follows carries a reported EC50.
Provide only the numeric value, understood in µM.

C[C@]12C=C[C@@]3(CC[C@@H]4[C@@](C)(CO)CCC[C@@]4(C)[C@@H]3CC1)C2 : 18.1

Now let's try a different one.
# EC50 lookup, item CCOC(=O)[C@]1(C)CCC[C@@]2(C)[C@@H]3CC[C@@]4(C)C[C@]3(CC[C@@H]21)C/C4=N/NS(=O)(=O)c1ccc(C)cc1
3

Value source: ChEMBL document CHEMBL4308897
